src = ChEMBL document CHEMBL1155252

Target: UniProt Q08499
Sequence (Q08499 whole entry): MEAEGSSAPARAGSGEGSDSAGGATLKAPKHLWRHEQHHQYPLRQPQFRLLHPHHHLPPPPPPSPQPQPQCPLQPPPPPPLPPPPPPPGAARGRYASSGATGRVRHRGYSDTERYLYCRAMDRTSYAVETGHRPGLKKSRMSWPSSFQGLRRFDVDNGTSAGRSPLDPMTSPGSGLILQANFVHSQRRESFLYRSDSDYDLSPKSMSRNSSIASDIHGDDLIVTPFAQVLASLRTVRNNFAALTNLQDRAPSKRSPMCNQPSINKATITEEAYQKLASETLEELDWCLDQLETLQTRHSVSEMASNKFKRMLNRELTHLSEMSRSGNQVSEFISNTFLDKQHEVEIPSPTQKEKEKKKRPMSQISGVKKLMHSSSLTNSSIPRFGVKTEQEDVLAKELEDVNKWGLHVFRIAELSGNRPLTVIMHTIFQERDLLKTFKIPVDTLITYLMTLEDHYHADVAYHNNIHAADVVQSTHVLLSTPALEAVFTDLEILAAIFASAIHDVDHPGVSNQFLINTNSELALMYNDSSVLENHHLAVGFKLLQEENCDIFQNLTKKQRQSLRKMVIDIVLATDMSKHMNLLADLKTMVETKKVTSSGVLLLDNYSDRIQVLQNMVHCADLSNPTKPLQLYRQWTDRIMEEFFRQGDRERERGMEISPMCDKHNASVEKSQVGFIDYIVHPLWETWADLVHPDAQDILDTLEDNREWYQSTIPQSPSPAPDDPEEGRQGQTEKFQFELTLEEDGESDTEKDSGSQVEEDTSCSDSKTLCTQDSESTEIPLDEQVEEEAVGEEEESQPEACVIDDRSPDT
Recorded IC50 for the following compounds
Unit µM implied. Number only.

CC1CCc2sc(NC(=O)c3ccccc3[N+](=O)[O-])c(C(N)=O)c2C1 (configuration not stated) | 6.31

Next compound, IC50 to be filled in.
Looking for the measured IC50 of CC1(C)CCc2c(sc(NC(=O)c3ccccc3[N+](=O)[O-])c2C(N)=O)C1 , can you help? 0.398
